Target: T1, mouse TREM1 (mouse, UniProt Q9JKE2 21-230)
T1 chain: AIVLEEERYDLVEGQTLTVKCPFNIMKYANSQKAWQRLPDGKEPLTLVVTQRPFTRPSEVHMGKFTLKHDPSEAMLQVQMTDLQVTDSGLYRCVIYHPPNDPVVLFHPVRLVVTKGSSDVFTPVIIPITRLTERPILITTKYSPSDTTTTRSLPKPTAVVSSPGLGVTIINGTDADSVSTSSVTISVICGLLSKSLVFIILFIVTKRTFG
Test: cell binding
PROPERTY MEASURED: EC50 (nM)
All answers are understood in nM, so give the number only.

# input Give its EC50 value. Item: afucosylated Pi-4928 (antibody, V domains shown, afucosylated Fc glycan) VH: QVQLKESGPGLVQPSQTLSLTCTVSGFSITSSNVYWFRQPPGKGLEWMGNIWGDGSTDYNSSLKSRLTLSRDTSKNQVFLKINSLQSEDTATYFCTRSWEYYFDHWGQGVVVTVSS VL: DIVLTQSPALAVSPGQRATLSCRASQSVTLSNVNLMNWYQQKPGQQPKLLIYHASNLASGIPTRFSGSGSGTDFTLTIDPVQADDIAAYYCQQSGESPRTFGGGTKVELKR
# output 2.32

# input Item under review: afucosylated Pi-9067L (antibody, V domains shown, afucosylated Fc glycan) VH: EVQLVESGGGLVQPGGSLRLSCAASGFDIYSYSIHWVRQAPGKGLEWVAYIYPSYGYTSYADSVKGRFTISADTSKNTAYLQMNSLRAEDTAVYYCARGAVAALDYWGQGTLVTVSS VL: DIQMTQSPSSLSASVGDRVTITCRASQSVSSAVAWYQQKPGKAPKLLIYSASSLYSGVPSRFSGSRSGTDFTLTISSLQPEDFATYYCQQYGVSGYSLITFGQGTKVEIKR . Reported EC50?
# output 2.9

# input What value of EC50 has been reported for the following binder? Pi-9067L (antibody, V domains shown) VH: EVQLVESGGGLVQPGGSLRLSCAASGFDIYSYSIHWVRQAPGKGLEWVAYIYPSYGYTSYADSVKGRFTISADTSKNTAYLQMNSLRAEDTAVYYCARGAVAALDYWGQGTLVTVSS VL: DIQMTQSPSSLSASVGDRVTITCRASQSVSSAVAWYQQKPGKAPKLLIYSASSLYSGVPSRFSGSRSGTDFTLTISSLQPEDFATYYCQQYGVSGYSLITFGQGTKVEIKR
# output 1.85
